Hi! I'm sharing some pKi results obtained with rat μ (C6-MOR) opioid receptor (Rattus norvegicus, UniProt P33535).
Sequence (P33535 whole entry): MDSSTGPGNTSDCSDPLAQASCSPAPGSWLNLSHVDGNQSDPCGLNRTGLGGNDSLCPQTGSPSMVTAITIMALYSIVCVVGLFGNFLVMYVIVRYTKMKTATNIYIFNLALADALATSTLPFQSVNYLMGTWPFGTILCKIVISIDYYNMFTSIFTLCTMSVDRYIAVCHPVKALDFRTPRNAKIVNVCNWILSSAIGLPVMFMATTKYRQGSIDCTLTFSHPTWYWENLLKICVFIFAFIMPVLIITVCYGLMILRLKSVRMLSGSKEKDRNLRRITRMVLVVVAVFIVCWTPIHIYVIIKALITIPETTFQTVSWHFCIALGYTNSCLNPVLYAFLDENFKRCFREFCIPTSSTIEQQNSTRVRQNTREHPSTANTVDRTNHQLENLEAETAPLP
pKi: −log10 of the molar value.
REPORTED_ENDPOINT: pKi

Cc1cc(O)cc(C)c1C[C@H](N)C(=O)N[C@@H]1CCNc2ccc(Sc3ccccc3)cc21 = 9.35
Cc1cc(O)cc(C)c1C[C@H](N)C(=O)N[C@@H]1CCNc2ccc(CN3CCc4cccc(C(F)(F)F)c4C3)cc21 = 9.77
Cc1cc(O)cc(C)c1C[C@H](N)C(=O)N[C@@H]1CCNc2c(C(=O)O)cc(Cc3ccccc3)cc21 = 9.22
Cc1cc(O)cc(C)c1C[C@H](N)C(=O)N[C@@H]1CCCc2ccccc21 = 7.59
Cc1cc(O)cc(C)c1C[C@H](N)C(=O)N[C@@H]1CCNc2ccc(CN3CCC4(CCCCC4)C3)cc21 = 8.94
COC(=O)N1CC[C@@H](NC(=O)[C@@H](N)Cc2c(C)cc(O)cc2C)c2cc(CC3Cc4ccccc4C3)ccc21 = 10.05
Cc1cc(O)cc(C)c1C[C@H](N)C(=O)N[C@@H]1CCOc2ccc(Cc3ccccc3)cc21 = 10.34

====

Target: rat μ (C6-MOR) opioid receptor (Rattus norvegicus, UniProt P33535)
Construct: expressed in transfected cells
Assay: Stimulation of [35S]GTPγS binding, MOR
Assay type: biochemical
Conditions: [35S]GTPγS maximal stimulation compared with 10 μM standard DAMGO
# Emax listing for each entry below
REPORTED_ENDPOINT: Emax (%)

Cc1cc(O)cc(C)c1C[C@H](N)C(=O)N[C@@H]1CCNc2c(CN3CCCCC3)cc(Cc3ccccc3)cc21 = 93
Cc1cc(O)cc(C)c1C[C@H](N)C(=O)N[C@@H]1CCNc2ccc(Cc3ccc(F)cc3)cc21 = 69
Cc1cc(O)cc(C)c1C[C@H](N)C(=O)N[C@@H]1CCNc2c1cc(Cc1ccccc1)cc2C(F)(F)F = 70
CC(=O)N1CC[C@H](NC(=O)[C@@H](N)Cc2c(C)cc(O)cc2C)c2cc(Oc3ccccc3)ccc21 = 60.4
Cc1ccc(Cc2ccc3c(c2)[C@H](NC(=O)[C@@H](N)Cc2c(C)cc(O)cc2C)CCN3)cc1 = 99
CCCN1CC[C@@H](NC(=O)[C@@H](N)Cc2c(C)cc(O)cc2C)c2cc(Cc3ccccc3)ccc21 = 83.1
Cc1cc(O)cc(C)c1C[C@H](N)C(=O)N[C@@H]1CCS(=O)(=O)c2ccc(Cc3ccccc3)cc21 = 94.5
Cc1ccc2c(c1)CN(Cc1ccc3c(c1)[C@H](NC(=O)[C@@H](N)Cc1c(C)cc(O)cc1C)CCN3)CC2 = 111
Cc1cc(O)cc(C)c1C[C@H](N)C(=O)N[C@@H]1CCNc2c(CN3CCN(C(=O)[C@@H](N)Cc4c(C)cc(O)cc4C)CC3)cc(Cc3ccccc3)cc21 = 86
Cc1cc(O)cc(C)c1C[C@H](N)C(=O)N[C@@H]1CCNc2ccc(Cn3n[n+]([O-])c4ccc(Cl)cc43)cc21 = 81.6
Cc1cc(O)cc(C)c1C[C@H](N)C(=O)N[C@@H]1CCC(C)(C)c2ccc(Cc3ccccc3)cc21 = 75.4
Cc1cc(O)cc(C)c1C[C@H](N)C(=O)N[C@@H]1CCNc2ccc(Oc3cccc(Cl)c3)cc21 = 27.2
COc1ccc2c(c1)CC(Cc1ccc3c(c1)[C@H](NC(=O)[C@@H](N)Cc1c(C)cc(O)cc1C)CCN3)C2 (some centres unmarked) = 10.9
Cc1cc(O)cc(C)c1C[C@H](N)C(=O)N[C@H]1CCNc2ccc(Oc3ccccc3)cc21 = 16.6
